Below is a list of entries, each paired with its recorded pKd value.
target-under-test: T1, GFP-9S library array, motif 4 ND N98R;D124P (synthetic construct, N98R;D124P)
T1 chain: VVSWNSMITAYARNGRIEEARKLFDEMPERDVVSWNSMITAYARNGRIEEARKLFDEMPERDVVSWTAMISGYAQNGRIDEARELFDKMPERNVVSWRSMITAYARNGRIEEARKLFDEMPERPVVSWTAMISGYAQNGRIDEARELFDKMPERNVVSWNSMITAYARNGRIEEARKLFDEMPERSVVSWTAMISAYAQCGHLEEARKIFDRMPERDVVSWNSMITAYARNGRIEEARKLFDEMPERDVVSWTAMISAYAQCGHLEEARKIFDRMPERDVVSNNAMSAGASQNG
experimental-details: high-throughput RNA pulldown from lysate on Ni-NTA beads; HRP: 50 mM Tris pH 8, 150 mM NaCl, 1 mM beta-mercaptoethanol, 50 ug/ml BSA, 3 ug/ml yeast RNA, 0.5% heparin; ITC and FP: Tris pH 8, 200 mM KCl, 5% glycerol; MST: 50 mM Tris pH 8, 200 mM NaCl, 1 mM DTT, BSA, heparin, 0.05% Tween 20
run-conditions: tags: N-terminal His-eGFP; label: 5' Cy5
pKd: −log10 of the molar value.
experimental-readout: pKd

binder: AUUAGACGUGA (ssRNA) [Cy5-rpoA-G]
numeric-value: 6.82

binder: AUUACACGUGA (ssRNA) [Cy5-rpoA]
numeric-value: 6.84
